PROTOCOL: 384-well plate pilot, post-Golgi transport modulator project, inhibition of yeast transport mutant growth (AID 636); further: test concentration not given here
CONDITIONS_USED: absorbance 615 nm, about 18 h, hits give high values
Reported inhibition values are given for each entry in this list.
Unit % implied. Number only.

Consider the reported inhibition for these compounds:
COMPOUND | inhibition / %
Cc1ccc(-c2nnc3ccc(SCC(=O)NCc4ccco4)nn23)cc1 | -5.41
COc1ccc(CN2CC(C(=O)NCc3ccccn3)CC2=O)cc1 (centres undefined) | -5
CC1=CC=CC2=NC(=O)CC(C)(C(=O)N(CC(=O)NC(C)C)C3CCCC3)N12 (centres undefined) | -4
COc1cccc(C(=O)Nc2ncc3c(n2)CC(C)CC3=O)c1 (centres undefined) | -2.16
CC(C)Cn1c(N)c(C(=O)COC(=O)c2cc(-c3ccco3)nc3ccccc23)c(=O)n(C)c1=O | -4.32
CC1CCN(S(=O)(=O)c2ccc3[nH]c(=O)cc(C(=O)O)c3c2)CC1 | -4.16
CCOC(=O)Nc1ccc2c(c1)N(C(=O)CN(CC)CC)c1ccccc1C=C2 | -4.61
Cc1cnnc2c1-c1nonc1CC2 | -6.13

Input: Using the record for CCOc1ccc(S(=O)(=O)Nc2cccc(Cl)c2)cc1 , report its inhibition.
Output: -5.07

Input: // query: O=C1OCc2cc(NC(=O)C3CCCO3)ccc21 (centres undefined)
Output: 1.84

Input: // query: CCOc1cc(C)c(Cl)cc1S(=O)(=O)N(C)C
Output: -3.03

Input: // query: CSCCC(NS(=O)(=O)c1ccc2c(c1)oc(=O)n2C)C(=O)NC1CCCCC1 (centres undefined)
Output: 0.9

Input: // query: Cc1cccc(-c2nnn(CC/C(N)=N/O)n2)c1
Output: -2.53

Input: // query: CC(=O)Nc1ccc(S(=O)(=O)N2CCN(C(C)CCc3ccccc3)CC2)cc1 (centres undefined)
Output: -4.8

Input: // query: Brc1cccc(-c2cnc3n2CCCCC3)c1
Output: -6.53

Input: // query: CC(C)(C)NC(=O)COC(=O)c1ccc(O)cc1
Output: -2.99

Input: // query: O=S(=O)(c1cccc2nsnc12)N1CCN(c2ncccn2)CC1
Output: -7.16

Input: // query: O=C(OCC(=O)c1c[nH]c2ccccc12)C1=COCCO1
Output: -6.62

Input: // query: O=C(CN1C(=O)CSC1=O)Nc1ccc(N2CCOCC2)cc1
Output: 1.07
